The measurements presented in this section are drawn from ChEMBL document CHEMBL4513216.

# assayDetails: Toxicity liver stage against HepG2, at 10uM
# Assay type: cell-based
# Parameters: test concentration 10 uM, cell line HepG2-A16-CD81EGFP
# conditionInfo: human, HepG2-A16-CD81EGFP cells; read-out: INHIBITION
readoutLabel: cytotoxicity at 10 µM (%)
Just the number in %, nothing appended.

// known answers, use as guide
compound: Cn1ccc(CN2CCC(NC(=O)C3CCCCC3)CC2)cc1=O
cytotoxicity at 10 µM (%): -13
//
compound: CCOc1cccc(C(C)NCc2c(C)nn(C)c2N(C)C)c1 (configuration not stated)
cytotoxicity at 10 µM (%): 5.22
//
compound: O=C(CCc1cc2n(n1)CCN(Cc1ccncc1)C2)N1CCCC1
cytotoxicity at 10 µM (%): -7.97
//
compound: CCn1ccnc1CN(C)c1cc(OC)ncn1
cytotoxicity at 10 µM (%): -37.5
//
compound: CN1CC(c2ccccc2)CC2(CCN(C(=O)c3cccnn3)CC2)C1 (configuration not stated)
cytotoxicity at 10 µM (%): -8.92
//
compound: CC(NC(=O)CSCC(N)=O)c1ccc(Oc2ccccc2)cc1 (configuration not stated)
cytotoxicity at 10 µM (%): 2.98

Item: "CCS(=O)(=O)NCC(=O)N1CCC(c2cc3ccccc3[nH]2)CC1" | cytotoxicity at 10 µM: -7.79
